Test system: HBV coreP25A
Assay Info: microbe, parasite or virus in culture
Format: cell-based, Hepatitis B virus
Cond: Hepatitis B virus, HepG2
pEC50: −log10 of the molar value.
Parameter Measured: pEC50

Compound	Readout Value
Cc1cn(C2OC(COP(=O)(NC(C)C(=O)OC(C)C)Oc3ccccc3)C(O)C2F)c(=O)[nH]c1=O (stereo not shown) [ATI-2173]	6.27

====

System: HBV genotype D
Assay Info: Anti-HBV activity in HepG2.2.15 cells (extracellular HBV DNA by qPCR)
Type: cell-based
Cond: Hepatitis B virus, HepG2.2.15, read-out: EC50, extracellular HBV DNA
pEC50: −log10 of the molar value.
Parameter Measured: pEC50

Compound	Readout Value
Cc1cn([C@H]2O[C@@H](CO)[C@H](O)[C@H]2F)c(=O)[nH]c1=O [Clevudine]	7.00

====

Listed below: EC50 values for each entry.
System: HBV rtV173L+M204I
Assay Info: microbe, parasite or virus in culture
Type: cell-based
Cond: Hepatitis B virus, HepG2

Molecule	EC50
Nc1ccn([C@@H]2CS[C@H](CO)O2)c(=O)n1 [Lamivudine, reference compound]	> 10 µM
Cc1cn(C2OC(COP(=O)(NC(C)C(=O)OC(C)C)Oc3ccccc3)C(O)C2F)c(=O)[nH]c1=O (centres unmarked)	> 10 µM

====

Test system: HBV rtN236T
Assay Info: microbe, parasite or virus in culture
Assay type: cell-based
Cond: Hepatitis B virus, HepG2
pEC50: −log10 of the molar value.
Listed below: pEC50 values for each entry.

Molecule	pEC50
Cc1cn(C2OC(COP(=O)(NC(C)C(=O)OC(C)C)Oc3ccccc3)C(O)C2F)c(=O)[nH]c1=O (centres unmarked)	6.41
Nc1ccn([C@@H]2CS[C@H](CO)O2)c(=O)n1 [Lamivudine, reference compound]	6.89

====

Assay Info: Cell viability (CC50) in primary human hepatocytes

Molecule	CC50
Cc1cn(C2OC(COP(=O)(NC(C)C(=O)OC(C)C)Oc3ccccc3)C(O)C2F)c(=O)[nH]c1=O (stereo not shown)	> 20 nM

====

Assay Info: Protein binding
Format: in vitro ADME
Cond: data not shown

Molecule	fraction unbound
Cc1cn(C2OC(COP(=O)(NC(C)C(=O)OC(C)C)Oc3ccccc3)C(O)C2F)c(=O)[nH]c1=O (stereo not shown) [ATI-2173]	~0.45

====

Tested on: HBV genotype H (AB179747)
Assay Info: microbe, parasite or virus in culture
Type: cell-based
Cond: Hepatitis B virus, HepG2

Compound	Value Units	EC50
Cc1cn(C2OC(COP(=O)(NC(C)C(=O)OC(C)C)Oc3ccccc3)C(O)C2F)c(=O)[nH]c1=O (stereo not shown)	nM	718

====

Test system: HBV wild type (U95551)
Assay Info: Cross-resistance in transfected HepG2 cells, wild type
Assay type: cell-based, Hepatitis B virus
Listed below: EC50 values for each entry.
Parameter Measured: EC50 (µM)

Compound	Experimental System	Parameter Measured	Value Units	Readout Value
CCOC(=O)C1=C(CN2CCOCC2)NC(c2nccs2)=NC1c1ccc(F)cc1Br (centres unmarked)	HBV wild type (U95551)	EC50	µM	0.015
COc1ccccc1/C(Br)=C(\NC(=O)c1ccc([N+](=O)[O-])cc1)C(=O)N1CCCCC1	HBV wild type (U95551)	EC50	µM	0.246

====

Listed below: pEC50 values for each entry.
Tested on: HBV wild type (U95551)
Assay Info: Cross-resistance in transfected HepG2 cells, wild type
Type: cell-based, Hepatitis B virus
Cond: Hepatitis B virus
pEC50: −log10 of the molar value.

Molecule	pEC50
C=C1[C@H](CO)[C@@H](O)C[C@@H]1n1cnc2c(=O)[nH]c(N)nc21 [Entecavir]	8.52
Cc1cn(C2OC(COP(=O)(NC(C)C(=O)OC(C)C)Oc3ccccc3)C(O)C2F)c(=O)[nH]c1=O (stereo not drawn) [ATI-2173]	6.22
Nc1ccn([C@@H]2CS[C@H](CO)O2)c(=O)n1 [Lamivudine, reference compound]	7.02
